The reported numbers originate from patent US8853424B2.

system: transglutaminase (TGase); assay: Measurement of TG (TGase inhibitory activity, monodansyl cadaverine / N,N-dimethylcasein fluorescence, FDSS 3000); assay type: biochemical; conditions: TGase activity with compound (10 mM, 1 μL in 0.1 ml enzyme reaction solution); DMSO control taken as 100
Observed property: TGase activity remaining (% of DMSO control = 100)
Lab note: write the figure by itself, no unit.

Use these answered entries as a reference point.
| Compound | Measured value |
| --- | --- |
| CN(C)CCOB(c1ccccc1)c1ccc(Oc2ccc(B(OCCN(C)C)c3ccccc3)cc2)cc1 [Example 395] | 116 |
| NC(=O)CCC(N)C(=O)OB(c1ccsc1)c1ccc2sc3ccc(B(OC(=O)C(N)CCC(N)=O)c4ccsc4)cc3c2c1 (stereo not shown) | 47 |
| CCCCB(CCCC)OC(=O)C(C)N (stereo not shown) | 102 |

# TGase activity remaining (% of DMSO control = 100) (compound: NCCC(N)C(=O)OB(c1ccccc1)c1cccc(COCc2cccc(B(OC(=O)C(N)CCN)c3ccccc3)c2)c1 (stereo not shown) ) is 47
